# Test system: PC-3M
# method.description: Tumor cell line inhibition, PC-3M
# Format: cell-based
# test.parameters: PC-3M tumor cell line
quantity.kind: pIC50
One number for each entry, as −log10 of the molar value.

Problem: Lab note: record pIC50 of `COc1ccc(COC(=O)NC2(COc3cc4nccc(Oc5ccc(NC(=O)C6(C(=O)Nc7ccc(F)cc7)CC6)cc5F)c4cc3OC)CC2)cc1` tested on PC-3M.
Result: 4.45

###

Exercise: state measured pIC50 for each of the compounds provided.
# Tested on: SHG44
# method.description: Tumor cell line inhibition, SHG44
# Format: cell-based
# test.parameters: SHG-44
One number for each entry, as −log10 of the molar value.

Use the examples below as a reference point.
{"columns": ["compound", "tgt", "pIC50"],
 "data": [
  ["COc1cc2c(Oc3ccc(N(C(=O)C4(C(N)=O)CC4)c4ccccc4)c(F)c3)ccnc2cc1OCC1(N)CC1 [Example 14]", "SHG44", 5.85],
  ["COc1cc2c(Oc3ccc(N(C(=O)C4(C(N)=O)CC4)c4ccc(F)c(F)c4)c(F)c3)ccnc2cc1OCC1(NCC2CC2)CC1 [Example 11]", "SHG44", 6.23],
  ["COc1cc2c(Oc3ccc(N(C(=O)C4(C(N)=O)CC4)c4ccc(F)c(F)c4)c(F)c3)ccnc2cc1OCC1(NC2CCOCC2)CC1 [Example 9]", "SHG44", 5.66]
]}

Problem: Determine from records and report pIC50 for COc1ccc(COC(=O)NC2(COc3cc4nccc(Oc5ccc(NC(=O)C6(C(=O)Nc7ccccc7)CC6)cc5F)c4cc3OC)CC2)cc1 [Example 13]
Result: 4.59
